Tested on: cAMP and cAMP-inhibited cGMP 3',5'-cyclic phosphodiesterase 10A (Homo sapiens, UniProt Q9Y233)
Assay endpoint: IC50 (nM)

Compound	U	Assay value
CC(=O)c1cc(NC(=O)c2nc(C3CC3)cnc2Nc2cncnc2)ccc1F [Roche-Dataset for PDE10A, Compound 869]	nM	9.64
Cn1ncc(C(=O)N2CCC2)c1C(=O)Nc1ccc2nc(N3CCOCC3)nn2c1 [Roche-Dataset for PDE10A, Compound 412]	nM	16
Cn1cc(-c2ccccc2)nc1COc1nc2ccccc2nc1N1CCCC1 [Roche-Dataset for PDE10A, Compound 403]	nM	7.71

====

Tested on: cAMP and cAMP-inhibited cGMP 3',5'-cyclic phosphodiesterase 10A (Homo sapiens)
pIC50: −log10 of the molar value.
Kindly return y if reported pIC50 is no lower than 8; return n if it is lower.

Compound	Assigned label
Cc1ncc(C)n2nc(CCc3ncn(-c4ccccc4)n3)nc12 [Roche-Dataset for PDE10A, Compound 400]	n
Cn1ncc(C(=O)N2CCC2)c1C(=O)Nc1ccn(Cc2ccccc2)n1 [Roche-Dataset for PDE10A, Compound 950]	n
O=C(Nc1cc(-c2ccccn2)nn1CCN1CCOCC1)c1nc(C2CC2)ccc1Nc1cncnc1	y
O=C1c2ccccc2C(=O)N1CCc1cnc(-c2ccccc2)[nH]1 [Roche-Dataset for PDE10A, Compound 299]	n
COC(=O)c1cccc(NC(=O)c2nc(C3CC3)cnc2Nc2cncnc2)n1 [Roche-Dataset for PDE10A, Compound 1037]	n
Cn1ncc(C(=O)N2CCC2)c1C(=O)Nc1cc2nc(N3CCOCC3)nn2cn1 [Roche-Dataset for PDE10A, Compound 422]	y
Cn1cc(C(=O)Nc2ccn3cc(-c4ccccc4)nc3n2)c(C(=O)NCc2ccccn2)n1 [Roche-Dataset for PDE10A, Compound 1029]	n
COc1c(C)cnc(CCc2nc(-c3ccccc3)cn2C)c1C [Roche-Dataset for PDE10A, Compound 197]	n
O=C1c2ccccc2C(=O)N1CCc1nc(-c2ccncc2)no1 [Roche-Dataset for PDE10A, Compound 570]	n
Cn1ncc(C(=O)N2CCC2)c1C(=O)Nc1ccn2nc(-c3cccc(F)c3)nc2c1 [Roche-Dataset for PDE10A, Compound 140]	y
O=C(Nc1ccn(CCO)n1)c1nc(C2CC2)ccc1Nc1cncnc1 [Roche-Dataset for PDE10A, Compound 597]	n
Cn1nc(N2CCCC2)nc1/C=C/c1nc(N2CCCC2)n(C)n1 [Roche-Dataset for PDE10A, Compound 429]	n
Cn1cc(-c2ccccc2)nc1COc1cnc(Br)c(C(=O)Nc2cncnc2)n1 [Roche-Dataset for PDE10A, Compound 716]	n
Cc1cc(C)n2nc(CCc3nc4c(Cl)cc(Cl)c(C)n4n3)nc2n1 [Roche-Dataset for PDE10A, Compound 1073]	n
Cc1nc2cc(Cl)ccc2nc1OCc1nc(-c2ccccc2)cn1C [Roche-Dataset for PDE10A, Compound 587]	y
